Experiment: CCTE_Shafer_MEA_acute_per_burst_spike_number_mean: CCTE's Neural Acute Assay for Average Number of Spikes Per Burst, Shafer Lab (AID 2284015);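 further: hits are decreases in mean spikes per burst versus baseline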
The source made the active and inactive calls. How the source made its calls: active means hit-call score of the fitted dose curve at least 0.9, where 1 is the maximum; inactive means score below 0.9. Peptide text beside a SMILES is read from it.
Tick one outcome: active, inactive

Record excerpt, results attached:
MOLECULE: C1CNCCN1
CLASS ASSIGNMENT: inactive

MOLECULE: CC(CCC(=O)O)(c1ccc(O)cc1)c1ccc(O)cc1
CLASS ASSIGNMENT: inactive

Q: GET /call?item= `Oc1ccccc1Cc1ccccc1O` returns the recorded outcome of this test.
A: active

Q: In this assay, the call recorded for COC(=O)[C@H](Cc1ccccc1)NC(=O)[C@@H](N)CC(=O)O (H-Asp-Phe-OMe) was what?
A: inactive

----------
Read-out: Plasminogen activator inhibitor-1 (PAI1), SERPINE1 (gene 5054)
Experiment: BSK_hDFCGF_PAI1: BioMAP Diversity Plus: hDFCGF Assay for Plasminogen activator inhibitor-1 (PAI1) Biomarker Activity (AID 2283066)
Settings: primary human foreskin fibroblasts; actives raise or lower the signal
The source made the active and inactive calls. The calls were made as follows: active = hit-call score of the fitted dose curve at least 0.9, where 1 is the maximum; inactive = score below 0.9.
API: response.call in true (1) = active, false (0) = inactive

Examples with answers:
COMPOUND: CCOC(=O)C1=NOC(c2ccccc2)(c2ccccc2)C1
CLASS ASSIGNMENT: false (0)
//
COMPOUND: CCc1cccc(C)c1N(C(=O)CS(=O)(=O)O)C(C)COC (stereo not given)
CLASS ASSIGNMENT: false (0)
//
COMPOUND: Nc1cccc(N)n1
CLASS ASSIGNMENT: false (0)
//
COMPOUND: C1CNCCN1
CLASS ASSIGNMENT: false (0)
//
COMPOUND: CCCCC1C(=O)N(c2ccccc2)N(c2ccccc2)C1=O
CLASS ASSIGNMENT: false (0)

Q: Any idea what this test logged for `Nc1ccc(C(=O)O)cc1` ?
A: false (0)

Q: Call for entry `O=C1CCCCCCCCCCCN1` :
A: false (0)

Q: Answer briefly: the call reported for `CC/C=C\CCOC(=O)c1ccccc1O` in this assay.
A: true (1)

Q: Test call, this compound: `C=CC(=O)OCCCCCCOC(=O)C=C`
A: true (1)

Q: Outcome logged for `CCCCCCC=O` in this assay:
A: false (0)

Q: Recorded test outcome, item `Oc1ccccc1Cc1ccccc1O`
A: false (0)

----------
Biological target: Bile acid receptor (Homo sapiens) (UniProt Q96RI1)
Sequence (Q96RI1 whole entry, looked up): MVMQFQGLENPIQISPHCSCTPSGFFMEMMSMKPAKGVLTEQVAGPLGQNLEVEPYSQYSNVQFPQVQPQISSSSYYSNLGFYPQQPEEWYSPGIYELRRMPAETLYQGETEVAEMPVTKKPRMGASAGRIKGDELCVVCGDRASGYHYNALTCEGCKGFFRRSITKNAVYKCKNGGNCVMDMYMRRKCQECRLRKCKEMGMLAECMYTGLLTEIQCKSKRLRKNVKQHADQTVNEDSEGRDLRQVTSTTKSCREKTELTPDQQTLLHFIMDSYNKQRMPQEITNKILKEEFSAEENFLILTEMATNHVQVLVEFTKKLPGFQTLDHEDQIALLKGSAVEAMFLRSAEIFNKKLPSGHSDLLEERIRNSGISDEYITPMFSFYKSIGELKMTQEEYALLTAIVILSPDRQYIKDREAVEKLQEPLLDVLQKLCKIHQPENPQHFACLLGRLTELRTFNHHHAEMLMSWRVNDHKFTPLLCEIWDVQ
Assay: OT_FXR_FXRSRC1_1440: Odyssey Thera (OT) 24-hour HEK293T Protein-Complementation Assay for Farnesoid X receptor/SRC-1 Co-activator (AID 2283384)
Inconclusive results are not listed. Calls of active or inactive are those of the source. How the source made its calls: active means hit-call score of the fitted dose curve at least 0.9, where 1 is the maximum; inconclusive means response in the unintended direction; inactive means score below 0.9.
Field 'call' accepts 1 (active), 0 (inactive)

ENTRY SMILES: CCCCNS(=O)(=O)c1ccccc1
CLASS ASSIGNMENT: 0

Q: Recorded call for `CN(C)Cc1cc(CN(C)C)c(O)c(CN(C)C)c1` ?
A: 0

Q: Lab log entry: `CCCCCCOc1ccc(N)cc1` — outcome as called in the assay?
A: 1

Q: What classification did `CC(C)(C)C1CCC(=O)CC1` end up with in this test?
A: 0

Q: Returns: the outcome recorded for `O=C(O)c1ccc2c(c1)C(=O)OC2=O` in this assay.
A: 0

Q: State the result this test recorded for `N#Cc1ccc(C(c2ccc(C#N)cc2)n2cncn2)cc1` .
A: 0

----------
Assay: ATG_VDRE_CIS: Attagene CIS-FACTORIAL HepG2 Assay for human Vitamin D Receptor Element (VDRE) (AID 2282968)
Conditions: HepG2 VDRE cis-reporter transcription, actives raise or lower the signal
Active and inactive are the calls of the source. How the source made its calls: active means hit-call score of the fitted dose curve at least 0.9, where 1 is the maximum; inactive means score below 0.9.
Log the outcome using a class from active, inactive

Study these solved cases before continuing.
COMPOUND: C=C(C)OC(C)=O
CLASS ASSIGNMENT: inactive

COMPOUND: COC(C=C(C)CCC=C(C)C)OC
CLASS ASSIGNMENT: active

COMPOUND: C=Cc1cccc(C)c1
CLASS ASSIGNMENT: inactive

Q: Recorded test call requested for `COC(OC)(C(=O)c1ccccc1)c1ccccc1`
A: active

----------
Read-out: Interleukin-8 (IL8), CXCL8 (gene 3576)
Experiment: BSK_BE3C_IL8: BioMAP Diversity Plus: BE3C Assay for Interleukin-8 (IL8) Biomarker Activity (AID 2284280)
Conditions: primary human bronchial epithelial cells
Activity calls are given as the source filed them. The calls were made as follows: active = hit-call score of the fitted dose curve at least 0.9, where 1 is the maximum; inactive = score below 0.9.
Classes to choose from: active, inactive

Sample answers from the record:
COMPOUND: CC(C)C(=O)OCCc1ccccc1
CLASS ASSIGNMENT: inactive
//
COMPOUND: Oc1ccccc1Cc1ccccc1O
CLASS ASSIGNMENT: inactive
//
COMPOUND: CC(CCC(=O)O)(c1ccc(O)cc1)c1ccc(O)cc1
CLASS ASSIGNMENT: inactive

Q: What classification did `O=C(O)C(F)(F)C(F)(F)C(F)(F)C(F)(F)C(=O)O` end up with in this test?
A: inactive

Q: Hi, do you know how `Nc1nc(N)nc(-c2ccccc2)n1` came out in this test?
A: inactive

Q: Assay result, entry `C[N+](C)(C)CCCNS(=O)(=O)C(F)(F)C(F)(F)C(F)(F)C(F)(F)C(F)(F)C(F)(F)C(F)(F)C(F)(F)F` — outcome?
A: active

Q: I would be grateful if you could indicate the recorded call for CCCC(C)C(=O)OCC (configuration not stated) .
A: inactive

----------
Target: Estrogen receptor (Homo sapiens) (UniProt P03372)
Sequence (P03372 whole entry, looked up): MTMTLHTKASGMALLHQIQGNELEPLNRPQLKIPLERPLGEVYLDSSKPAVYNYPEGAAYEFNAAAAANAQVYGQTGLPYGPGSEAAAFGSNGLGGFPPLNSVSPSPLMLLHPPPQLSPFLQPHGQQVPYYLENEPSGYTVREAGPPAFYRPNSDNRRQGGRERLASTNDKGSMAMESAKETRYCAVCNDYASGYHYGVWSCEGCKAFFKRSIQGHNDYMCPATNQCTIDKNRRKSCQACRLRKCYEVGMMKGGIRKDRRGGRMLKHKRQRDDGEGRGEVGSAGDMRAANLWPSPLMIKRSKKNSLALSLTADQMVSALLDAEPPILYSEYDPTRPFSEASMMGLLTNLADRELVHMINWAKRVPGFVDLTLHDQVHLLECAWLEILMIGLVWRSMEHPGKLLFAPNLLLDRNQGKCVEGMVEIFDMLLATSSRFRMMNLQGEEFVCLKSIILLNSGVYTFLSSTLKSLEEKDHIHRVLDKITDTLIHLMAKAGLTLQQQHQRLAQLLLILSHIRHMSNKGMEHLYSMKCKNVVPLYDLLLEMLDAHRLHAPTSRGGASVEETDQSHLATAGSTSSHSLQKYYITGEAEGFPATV
Assay: NVS_NR_hER: NovaScreen (NVS) Nuclear Receptor Binding Assay for human Estrogen Receptor (ER) (AID 2283348)
Protocol: NVS_NR_hER is a biochemical, single-readout assay that uses extracted gene-proteins from MCF7 in a cell-free assay. Measurements were taken 18 hours after chemical dosing in a 96-well plate.NVS_NR_hER is one of one assay component(s) measured or calculated from the NVS_NR_hER assay. […] This assay endpoint, NVS_NR_hER, was analyzed in the positive analysis fitting direction relative to DMSO as the negative control and baseline of activity. […]
Inconclusive results are not listed. The source made the active and inactive calls. Rule for the calls: active = hit-call score of the fitted dose curve at least 0.9, where 1 is the maximum; inconclusive = response in the unintended direction; inactive = score below 0.9.
Tick one outcome: active, inactive

Worked cases, answers included:
COMPOUND: N#Cc1ccc(C2CCCc3cncn32)cc1 (stereo unspecified)
CLASS ASSIGNMENT: active

COMPOUND: CC(=O)OCc1ccccc1
CLASS ASSIGNMENT: inactive

COMPOUND: O=c1c(O)c(-c2ccc(O)cc2O)oc2cc(O)cc(O)c12
CLASS ASSIGNMENT: active

COMPOUND: Nc1ccc(O)c([N+](=O)[O-])c1
CLASS ASSIGNMENT: inactive

COMPOUND: CC(C)(c1ccccc1)c1ccc(Nc2ccc(C(C)(C)c3ccccc3)cc2)cc1
CLASS ASSIGNMENT: inactive

Q: Assay outcome for `CCCCCCCCCC[N+](C)(CCCCCCCCCC)CCC[Si](OC)(OC)OC` : what was it?
A: inactive

Q: Outcome logged for `CCCCCCCCCCCCc1ccc(O)cc1` in this assay:
A: active

Q: What outcome does the record of this test show for `CN(C)Cc1cc(CN(C)C)c(O)c(CN(C)C)c1` ?
A: inactive

Q: Write down the call the test reported for this compound. Item: `CCCCC/C=C\C/C=C\CCCCCCCC(=O)O`
A: active

Q: Per the records of this test, what outcome belongs to `C[Si](C)(C)N[Si](C)(C)C` ?
A: inactive

Q: Could you please tell me the result logged for `CC(C)c1ccc(O)c(C(C)C)c1` in this assay?
A: inactive

Q: # fetch the recorded call for `O=C(OCc1ccccc1)c1ccc(O)cc1` here
A: active

----------
Read-out: Interleukin 17A (IL17A), IL17A (gene 3605)
Experiment: BSK_BT_xIL17A: BioMAP Diversity Plus: BT Assay for Interleukin 17A (IL17A) Biomarker Activity (AID 2284229)
Conditions: primary human B cells with PBMC
The source made the active and inactive calls. Rule for the calls: active = hit-call score of the fitted dose curve at least 0.9, where 1 is the maximum; inactive = score below 0.9.
Just give me one of these, please: yes (1) = active, no (0) = inactive

Solved cases below.
COMPOUND: CC(Cl)COP(=O)(OCC(C)Cl)OCC(C)Cl (centres undefined)
CLASS ASSIGNMENT: no (0)
--
COMPOUND: Clc1cc(Cl)c(Cl)c(Cl)c1Cl
CLASS ASSIGNMENT: no (0)
--
COMPOUND: COC(OC)(C(=O)c1ccccc1)c1ccccc1
CLASS ASSIGNMENT: no (0)
--
COMPOUND: CC(c1cc(C(C)(C)C)cc(C(C)(C)C)c1O)c1cc(C(C)(C)C)cc(C(C)(C)C)c1O
CLASS ASSIGNMENT: yes (1)
--
COMPOUND: Nc1cccc(N)n1
CLASS ASSIGNMENT: no (0)

Q: Dear all, I need the recorded test outcome for C=CC(=O)OCC(C)OCC(C)OCC(C)OC(=O)C=C (centres undefined) , thank you.
A: yes (1)

Q: Record lookup: outcome of this test for `Fc1ccc(Br)cc1` ?
A: no (0)

Q: What was the test verdict on `Oc1ccc(/C=C/c2cc(O)cc(O)c2)cc1` ?
A: yes (1)

Q: Per the records of this test, what outcome belongs to `CC=C(C)C=CC=C(C)C` ?
A: no (0)

Q: What did the test return for `c1ccc2c(c1)[nH]c1ccccc12` ?
A: no (0)

Q: // param item: `CC(C)c1cccc(C(C)C)c1N` ; yields the recorded call
A: no (0)

Q: Called result for `C=CC(=O)OCCCCCCOC(=O)C=C`
A: yes (1)

Q: Query: recorded result category for `C=C(C)C(=O)OCCCCCCCCCCCC` in this test
A: no (0)

Q: Recorded test call requested for `CC/C=C\CCOC(=O)c1ccccc1O`
A: no (0)
